Property: melting point; scope: individual molecules
measureName: melting point

O=C1Nc2cc(OC(F)(F)F)ccc2C1=O	183 to 185 °C
Cc1cc(F)cc(C(=O)O)c1N	191 to 193 °C
O=C(Nc1ccc(Cl)cc1)OCC(F)(F)F	69 to 71 °C
NS(=O)(=O)c1cccc2ncccc12	179 to 181 °C
Fc1cc2nc[nH]c2cc1F	159 to 161 °C
CN(C(=O)c1cccc(N)c1)c1ccccc1	144 to 146 °C
CNC(=O)COc1cccc(O)c1	123 to 125 °C
NOC1CCCCO1 (configuration not stated)	34 to 37 °C
Cn1c(=O)c2ccccc2n2c(CCl)nnc12	228 to 229 °C
C=CCOc1c(Br)cc(C=O)cc1OC	52 to 53 °C
CCn1nc(C)c(C(=O)O)c1Cl	129 to 131 °C
O=C(O)c1cc(=O)n(Cc2ccccc2)c2ccccc12	215 to 217 °C
Nc1cc2c(cc1NC(=O)c1cccs1)OCCO2	178 to 180 °C
Nc1nc(-c2ccccc2)c(-c2ncc[nH]2)s1	256 to 258 °C
Cc1noc(N)n1	161 to 163 °C
CC(O)c1nc2ncc(Br)cc2[nH]1 (configuration not stated)	218 to 220 °C
COc1ccc(N2CCC2=O)cc1	103 to 105 °C
O=C(NC1CC1)C(=O)N1CCNCC1	100 to 102 °C
O=C(O)c1nn(-c2ccc(Cl)cc2)cc1O	248 to 250 °C
Nc1c(C(=O)c2cccs2)oc2ccccc12	173 to 175 °C
COc1cccc(SCC(=O)O)c1	60 to 62 °C
Cc1cc(N2CCSCC2)ccc1N	79 to 81 °C
Cc1nc(-c2ccc(Br)cc2)n[nH]1	190 to 192 °C
O=C1CC(c2ccccc2)=NN1c1ccccc1	138 to 140 °C
Cc1nc(COc2ccc(C(=O)O)cc2)cs1	196 to 198 °C
Nc1nnc(Cc2ccsc2)s1	177 to 179 °C
CCOC(=O)C(=O)CC(=O)c1ccc2c(c1)OCO2	61 to 63 °C
CC(C)(C)OC(=O)NCC1CCCCN1 (configuration not stated)	93 to 95 °C
O=C(CCl)NCc1ccccc1S(=O)(=O)N1CCCCC1	89 to 91 °C
O=C(O)c1cc(S(=O)(=O)Cl)c(F)cc1Br	148 to 150 °C
CN(CCCNC(=O)CCl)S(C)(=O)=O	79 to 81 °C
CC(C)(C(=O)O)c1ccc2c(c1)OCCO2	125 to 127 °C
Cc1c(N=C=S)c(=O)n(-c2ccccc2)n1C	145 to 147 °C
O=C(O)c1c[nH]nc1C1CCCCC1	269 to 271 °C
CC(C)(C)OC(=O)Nc1ccoc1	139 to 141 °C
Cc1sc(-n2c(C)ccc2C)c(C(=O)O)c1C	171 to 173 °C
O=C1CC2CCCc3cccc1c32 (configuration not stated)	95 to 97 °C
O=C1CNC(=O)c2ccccc2N1	324 to 326 °C
Nc1ccccc1Cn1ccnc1	81 to 83 °C
O=C(O)CNC(=O)c1c[nH]c(=O)[nH]c1=O	301 to 303 °C
CCOC(=O)c1cnn2c3c(cnc12)CCOC3=O	246 to 248 °C
Nc1ccccc1NCCCn1ccnc1	160 to 162 °C
O=Cc1ccc(OCC(=O)O)c(Br)c1	196 to 198 °C
NC(=O)c1ccc(Cl)cc1O	188 to 190 °C
COc1ccc(CNC(=O)OC(C)(C)C)c(OC)c1	59 to 61 °C
CCCC(=O)Nc1cccc(CN)c1	54 to 56 °C
c1ccc2c(c1)NCCS2	34 to 38 °C

###

Property: melting point; scope: individual compounds
measureName: melting point

O=C(O)c1ccc(OCC(F)(F)F)cc1	200 to 202 °C
O=C1NCCCC1Br (stereo not drawn)	49 to 51 °C
Cc1ccc(OC(C)C(=O)O)cc1 (stereo not drawn)	101 to 103 °C

###

measureName: melting point

COc1cc(C#N)ccc1CBr	89 to 91 °C
Cc1nc(CC(C)C)c(C(=O)O)s1	116 to 118 °C
N#CCCNC(=O)CCl	96 to 98 °C
Nc1ccccc1Cn1cccn1	56 to 58 °C
CN(C)C(=O)Sc1cccc(CCl)c1	44 to 46 °C
CS(=O)(=O)c1ccc(C(=O)O)cc1[N+](=O)[O-]	274 to 276 °C
O=C(Nc1ncccn1)C1CCNCC1	146 to 148 °C
Nc1sc2c(c1C(=O)c1ccccc1)CCCC2	123 to 127 °C
COC(=O)c1cc2cccc(Br)c2o1	76 to 78 °C
Cc1nc(C(=O)O)c2n1CCCC2	225 to 227 °C
O=C(O)Cc1ccc(S(=O)(=O)CC(F)(F)F)cc1	142 to 144 °C
Cc1nc([N+](=O)[O-])cn1CCC(=O)O	217 to 219 °C
Cc1cccc(-c2nc(N)n[nH]2)c1[N+](=O)[O-]	242 to 244 °C
CC(C)c1ccc(C=O)cc1[N+](=O)[O-]	50 to 52 °C
O=c1[nH]c(-c2cnccn2)no1	232 to 234 °C
O=C(O)C(O)CCc1ccccc1 (stereo not given)	114 to 117 °C
O=C1NC2(CCCC2)C(=O)N1CCBr	97 to 99 °C
O=C1OC(=O)c2cc(Cl)ccc21	96 to 98 °C
FC(F)(F)c1nc(S)c2ccccc2n1	214 to 216 °C
c1ccc(CN2CCNc3ccccc32)cc1	44 to 46 °C
O=C(O)CCc1cc(Cl)cs1	69 to 71 °C
COC(=O)c1ccc(F)cc1S(=O)(=O)Cl	63 to 65 °C
COc1ccc(CC(N)=NO)cc1	109 to 111 °C
Nc1cc(C(F)(F)F)c[nH]c1=O	96 to 98 °C
NS(=O)(=O)c1ccc2c(c1)NCCC2	164 to 166 °C

###

Property: melting point; scope: individual molecules
measureName: melting point

CC(C)(C)OC(=O)N1CCc2nc(N)sc2C1	226 to 228 °C
Clc1nc(-c2cccc(Oc3ccccc3)c2)no1	50 to 52 °C
O=C(Nc1cccc(-c2nnco2)c1)OCC(F)(F)F	170 to 172 °C
S=C=Nc1cccnc1Cl	35 to 37 °C
BrCc1cc(Br)c2c(c1)OCO2	123 to 125 °C
CC(C)(C)OC(=O)Nc1ccc(CC(=O)O)cc1	153 to 155 °C
O=C(O)c1ccc(CN2CCC(O)CC2)cc1	219 to 221 °C
CC(Cl)C(=O)Nc1sc2c(c1C#N)CCC2 (stereo not drawn)	204 to 206 °C
O=C(O)c1cc(S(=O)(=O)Cl)cs1	139 to 141 °C
N#Cc1cccc(CN2C(=O)CCc3ccccc32)c1	119 to 121 °C
O=C(O)C1CC(=O)N(c2ccc(Cl)cc2)C1 (stereo not drawn)	149 to 151 °C
OCc1nc2ccccc2n1C(F)F	150 to 152 °C
O=C(Nc1sc2c(c1C(=O)O)CCC2)c1ccco1	242 to 244 °C
c1ccc2c(c1)ncn2C1CCCNC1 (stereo not drawn)	104 to 106 °C
Nc1nonc1-c1cccc(Br)c1	137 to 139 °C
CNC(=O)c1ccc(NC)c([N+](=O)[O-])c1	207 to 209 °C
Cc1nnc(S)n1C1CC1	132 to 134 °C
Nc1cc(O)cc(F)c1	159 to 161 °C
CC1Cc2ccc(Br)cc2C1=O (stereo not drawn)	69 to 71 °C
Cc1ccc(S(=O)(=O)NCCC(=O)O)cc1C	126 to 128 °C
Cc1cc(-n2c(C)c[nH]c2=O)no1	134 to 136 °C
Nc1n[nH]c(C(=O)O)c1-c1ccccc1	269 to 271 °C
CC(C)COc1ncc(C(=O)O)cc1Cl	106 to 108 °C

###

measureName: melting point

ClCc1ncn(-c2ccccc2)n1	83 to 85 °C
O=C(O)C1(NS(=O)(=O)c2cccc(F)c2)CCCCC1	213 to 215 °C
O=C(O)CCn1nnnc1S	156 to 158 °C
Cn1ccnc1C(=O)OCC(F)(F)F	83 to 85 °C
O=C(O)C1CCCn2c1n[nH]c2=O (stereo not drawn)	121 to 123 °C
CCOC(=O)C(NC(=O)C(C)C)C(=O)OCC	75 to 77 °C
CCOC(=O)c1c(C)oc2cc3c(C(=O)OCC)c(C)oc3cc12	187 to 189 °C
CN(C)S(=O)(=O)c1ccc(S(=O)(=O)Cl)cc1	134 to 136 °C
O=C(O)C(F)(F)c1c[nH]c(=O)[nH]c1=O	188 to 190 °C
CC(NS(=O)(=O)c1cccc(C(=O)O)c1)c1ccccc1 (stereo not drawn)	149 to 151 °C
CC(CO)NC(=O)c1ccc(N)cc1 (stereo not drawn)	174 to 176 °C
OCc1nc(-c2ccccc2)cs1	87 to 89 °C
NC(Cc1ccccn1)=NO	105 to 107 °C
O=S(=O)(CCN1CCCC(O)C1)c1ccc(Br)cc1 (stereo not drawn)	182 to 184 °C
CC(=O)c1c(Cl)nc2ccccn12	116 to 118 °C
CS(=O)(=O)N1CCC(NC(=O)N2CCC(C(=O)O)CC2)CC1	197 to 199 °C
C=CCNC(=O)c1ccccc1N	92 to 94 °C
O=C(O)c1ccc(NC(=O)c2ccco2)cc1	132 to 134 °C
Sc1nnc(-c2cccnc2)n1Cc1ccco1	117 to 119 °C
Cn1c(S)nnc1Cc1ccccc1	158 to 160 °C
Nc1cc(-c2ccccc2I)no1	120 to 122 °C
CC(C)(C(=O)O)C(O)c1cccc(OCc2ccccc2)c1 (stereo not drawn)	125 to 127 °C
CNc1nc2ccccc2[nH]1	190 to 192 °C
O=C1OCc2ccc(S(=O)(=O)Cl)cc21	104 to 106 °C
Cc1nc(C2CCCC2)sc1C(=O)O	185 to 187 °C
Nc1nc2ccc(S(=O)(=O)N3CCCC3)cc2s1	225 to 227 °C
Cc1ccc(-c2nnc(Cl)c3ccccc23)cc1C	241 to 243 °C
Cc1csc(-c2ccc(C(=O)O)cc2)n1	208 to 210 °C
NS(=O)(=O)c1ccc(S)nc1	242 to 244 °C
Cc1c(-c2ccncc2)n[nH]c1N	160 to 162 °C
ClCc1csc(-c2ncccn2)n1	147 to 149 °C
O=[N+]([O-])c1ccc(S(=O)(=O)CCO)cc1	128 to 130 °C
CC1CC(N)C(=O)N1c1ccccc1 (stereo not drawn)	77 to 79 °C
Cc1cccc2c3c([nH]c12)C(N)CCC3 (stereo not drawn)	130 to 132 °C
Cc1c(C(F)(F)F)cccc1S(N)(=O)=O	149 to 151 °C
Nc1nnc(-c2cccc(Cl)c2)[nH]1	219 to 221 °C
CC(=O)Nc1ccc(S(=O)(=O)N2CCC(=NO)CC2)cc1	200 to 202 °C
O=c1[nH]c(-c2ccc(Cl)s2)nc2c1CCC2	276 to 278 °C
